test system: SW620 cells; experiment: Matrigel invasion assay; format: cell-based, human; conditions: SW620 cells, 40 nM siRNA, normoxia, invasion over 48 h
quantity measured: reduction in number of invaded cells compared to c-siRNA (%)
Express the result in % but write the number alone.

Solved cases below.
>  <seq string>
CUAGGCAAUUUGUCGGCUC [n1-siRNA]

>  <target under test>
SW620 cells

>  <reading>
64

$$$$
>  <seq string>
GAGUCCUGAGAGCUCUAAA [n3-siRNA]

>  <target under test>
SW620 cells

>  <reading>
73

$$$$
>  <seq string>
GUCUCAGCCUUACGCACCU (listed as RNA, chemistry not given here) [a-siRNA, siRNA targeting 'adult' Nav1.5 (aNav1.5)]

>  <target under test>
SW620 cells

>  <reading>
17

$$$$

// query Field request: reduction in number of invaded cells compared to c-siRNA | item: UAUCAUGGCGUAUGUAUCA [n2-siRNA]
// result 45
